Every entry's value here was drawn from ChEMBL document CHEMBL1136954.

# assay: Inhibition of HCV NS4A-tethered single chain NS3 serine protease by spectrophotometric assay
# Design: species or system Hepacivirus hominis
measurement.type: Ki
Give the figure together with its unit, number first.

CC(C)[C@H](NC(=O)N[C@H](C(=O)N1C[C@H]2[C@@H]([C@H]1C(=O)NC(CC1CC1)C(=O)C(N)=O)C2(C)C)C(C)(C)C)C(=O)c1ccccn1 (mixture of isomers)	8 nM
COC(=O)C1(NC(=O)N[C@H](C(=O)N2C[C@H]3[C@@H]([C@H]2C(=O)NC(CC2CC2)C(=O)C(N)=O)C3(C)C)C(C)(C)C)CCCCC1 (mixture of isomers)	30 nM
CO[C@H](c1ccccc1)[C@@H](NC(=O)N[C@H](C(=O)N1C[C@H]2[C@@H]([C@H]1C(=O)NC(CC1CC1)C(=O)C(N)=O)C2(C)C)C(C)(C)C)C(C)C (mixture of isomers)	60 nM
CC(C)(C)[C@H](NC(=O)N[C@H](C(=O)c1ccccn1)C1CCCCC1)C(=O)N1C[C@H]2[C@@H]([C@H]1C(=O)NC(CC1CC1)C(=O)C(N)=O)C2(C)C (mixture of isomers)	7 nM
CC(C)[C@H](NC(=O)N[C@H](C(=O)N1C[C@H]2[C@@H]([C@H]1C(=O)NC(CC1CC1)C(=O)C(N)=O)C2(C)C)C(C)(C)C)C(=O)C1CCC1 (mixture of isomers)	20 nM

# input Hello, please tell me recorded Ki for this one: CC(C)[C@H](NC(=O)N[C@H](C(=O)N1C[C@H]2[C@@H]([C@H]1C(=O)NC(CC1CC1)C(=O)C(N)=O)C2(C)C)C(C)(C)C)[C@H](O)c1ccccc1 (mixture of isomers)
# output 77 nM

# input Hello, please tell me recorded Ki for this one: C=CCNC(=O)C(=O)C(CC1CC1)NC(=O)[C@@H]1[C@@H]2[C@H](CN1C(=O)[C@@H](NC(=O)N[C@H](C(=O)C1CC1)C1CCCCC1)C(C)(C)C)C2(C)C (mixture of isomers)
# output 27 nM

# input Hello, please tell me recorded Ki for this one: C=C(c1ccccc1)[C@@H](NC(=O)N[C@H](C(=O)N1C[C@H]2[C@@H]([C@H]1C(=O)NC(CC1CC1)C(=O)C(N)=O)C2(C)C)C(C)(C)C)C(C)C (mixture of isomers)
# output 50 nM

# input Hello, please tell me recorded Ki for this one: CC(C)[C@](C)(NC(=O)N[C@H](C(=O)N1C[C@H]2[C@@H]([C@H]1C(=O)NC(CC1CC1)C(=O)C(N)=O)C2(C)C)C(C)(C)C)C(=O)OCc1ccccc1 (mixture of isomers)
# output 44 nM

# input Hello, please tell me recorded Ki for this one: CC(C)(C)NC(=O)N[C@H](C(=O)N1C[C@H]2[C@@H]([C@H]1C(=O)NC(CC1CCC1)C(=O)C(N)=O)C2(C)C)C(C)(C)C (stereo not given in full)
# output 14 nM
